tested on: SK-OV-3; test: NCI tumour cell line growth inhibition, 48 h
Calls of active or inactive are those of the source. No stated cut-off is given here; in the data, active = GI50 up to about 1.1 µM and inactive = higher. *1 amine or outer side, *2 acyl side, *3 side chain or, on linkers, in order; H or OH if unused. Where a SMILES comes first, the peptide text is derived from it. Bridges are numbered along the chain shown (N, C = ends). [ ]: non-standard residue; d: D form. The star is where a group is joined. X56 = CC(C)C(C)C(C(=O)[*:2])N(C)[*:1]; Picolinoyl(3-OH) = O=C(c1ncccc1O)*; NMePhg = CN[CH](C(=O)O)c1ccccc1; Hyp = O=C(O)[CH]1C[CH](O)CN1; Sar = CNCC(=O)O
Outcomes: 1 (active), 0 (inactive)

molecule	system_name	class_assignment
OCC12C=CC(C1)c1ccccc12 (centres undefined)	SK-OV-3	0
O=C(COc1ccccc1Cl)N1N=C(c2ccccc2)CC1(O)c1ccccc1 (centres undefined)	SK-OV-3	0
CC1(C)Oc2ccc3c(=O)cc(-c4ccc(F)cc4)oc3c2C1C(=O)O (centres undefined)	SK-OV-3	0
C=CC/N=C(\S)Nc1sc2c(c1C(=O)OCC)CC(C)CC2 (centres undefined)	SK-OV-3	0
COC(=O)c1c(C)nc(C)c(NO)c1-c1ccccc1C(F)(F)F	SK-OV-3	0
O=C(/C=C/c1cccs1)c1ccc(C(=O)/C=C/c2cccs2)cc1	SK-OV-3	0
CN=[S+]([O-])(c1ccccc1)c1ccccc1	SK-OV-3	0
COc1ccc(NC(=O)C(=O)C(CC2C(=O)NC(=S)NC2=O)C(=O)c2ccc3ccccc3c2)c([N+](=O)[O-])c1 (centres undefined)	SK-OV-3	0
O=[N+]([O-])c1cccc(C2=NOC3C4CCC(C4)C23)c1 (centres undefined)	SK-OV-3	0
C1COC(NC(C2CC2)C2CC2)=N1	SK-OV-3	0
CCCN(CCC)C(=S)N/N=C/c1cccc(C)n1	SK-OV-3	1
COc1ccc(-c2ccc(CC(=O)O)cc2)cc1OC	SK-OV-3	0
CO/C=C(/C(=O)OC)[C@@H]1C[C@@H]1c1ccc2ccccc2c1	SK-OV-3	0
COc1ccccc1/C=C1/Sc2scc(CC(=O)Nc3ccccc3)[n+]2C1=O	SK-OV-3	0
C/C=C(\C)C(=O)O[C@@H]1CC(C)(C)CC2C3=CCC4[C@]56CC[C@](O)(OC5)C(C)(C)C6CC[C@@]4(C)C3(C)CC[C@]21C(=O)O (some centres undefined)	SK-OV-3	0
O=C(Cc1ccccc1)N/N=C(\C1=Nc2ccc([N+](=O)[O-])cc2NC1O)C(O)c1ccc([N+](=O)[O-])cc1 (centres undefined)	SK-OV-3	0
CC(C)CC1NC(=O)C(NC(=O)c2ncccc2O)C(C)OC(=O)C(c2ccccc2)N(C)C(=O)C(C)NC(=O)C(C(C)C(C)C)N(C)C(=O)CN(C)C(=O)C2CC(O)CN2C1=O (centres undefined) ({Picolinoyl(3-OH)}-TL[Hyp][Sar][X56]A[NMePhg]; ester 1-C; configuration not given here)	SK-OV-3	0
NC(=O)C(=O)c1ncn(Cc2ccccc2)c1N	SK-OV-3	0
C/C(=N/Nc1nc(C)cc(O)n1)C(=O)O	SK-OV-3	0
COc1ccc(-n2c(=O)n(C)c(=O)n2-c2c(C)c(C)c(C)c(C)c2C)cc1	SK-OV-3	0
CN1CC=C(c2c(N)nc(N)[nH]c2=O)CC1	SK-OV-3	0
CCC1=C(C(C)=O)[C@@H]2CCCCC[C@@H](C(=O)OC)C2C1=O (some centres undefined)	SK-OV-3	0
Oc1cc(O)c2c(-c3c(O)c(-c4ccc(O)c(O)c4)[o+]c4cc(O)cc(O)c34)c(O)c(-c3ccc(O)c(O)c3)[o+]c2c1	SK-OV-3	0
CC(=O)C1C(=O)C(=O)N(c2ccc(Cl)c(Cl)c2)C1=O (centres undefined)	SK-OV-3	0
CC1CCCN1CCCOC(=O)c1ccc(OC2C=CCCC2)cc1 (centres undefined)	SK-OV-3	0
Cc1c(C(=O)/C=C/c2ccco2)[n+]([O-])c2ccccc2[n+]1[O-]	SK-OV-3	0
C=O.NNCCc1n[nH]c(=O)n1N	SK-OV-3	0
Cc1ccc(O)c(C2=NNC(c3cccc(Cl)c3)C2)c1 (centres undefined)	SK-OV-3	0
O=C(CCC(=O)N/N=C/c1ccccc1O)N/N=C/c1ccccc1O	SK-OV-3	0
